Target system: C-Raf FL (Homo sapiens (Human), UniProt P04049, Y340E/Y341E)
Sequence (P04049 whole entry Y340E/Y341E): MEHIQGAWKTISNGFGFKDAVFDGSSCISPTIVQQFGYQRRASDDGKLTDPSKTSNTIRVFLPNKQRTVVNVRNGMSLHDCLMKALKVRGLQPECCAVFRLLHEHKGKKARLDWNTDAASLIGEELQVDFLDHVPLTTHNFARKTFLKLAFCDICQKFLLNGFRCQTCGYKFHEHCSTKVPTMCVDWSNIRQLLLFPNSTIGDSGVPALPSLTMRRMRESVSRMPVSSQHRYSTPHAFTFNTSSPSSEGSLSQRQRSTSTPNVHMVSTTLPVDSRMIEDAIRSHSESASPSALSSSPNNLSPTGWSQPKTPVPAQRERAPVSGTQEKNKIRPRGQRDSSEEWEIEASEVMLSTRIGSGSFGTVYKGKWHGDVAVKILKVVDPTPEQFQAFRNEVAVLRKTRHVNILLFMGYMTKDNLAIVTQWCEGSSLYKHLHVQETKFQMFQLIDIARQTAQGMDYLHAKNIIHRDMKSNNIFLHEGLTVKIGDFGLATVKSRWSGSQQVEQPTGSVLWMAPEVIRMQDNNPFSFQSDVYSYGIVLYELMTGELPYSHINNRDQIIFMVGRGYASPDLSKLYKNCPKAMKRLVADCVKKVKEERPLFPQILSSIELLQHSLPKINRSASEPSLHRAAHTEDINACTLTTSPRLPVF
Sequence (P63104 whole entry partner): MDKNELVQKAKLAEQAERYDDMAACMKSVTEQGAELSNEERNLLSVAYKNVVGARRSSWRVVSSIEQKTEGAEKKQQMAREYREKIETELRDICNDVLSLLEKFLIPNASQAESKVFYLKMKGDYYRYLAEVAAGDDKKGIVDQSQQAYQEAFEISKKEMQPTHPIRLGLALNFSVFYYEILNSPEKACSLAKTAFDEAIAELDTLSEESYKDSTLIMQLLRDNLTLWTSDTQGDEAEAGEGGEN
Assay summary: In vitro Raf activity determination (Alpha Screen, phospho-MEK), C-Raf FL (full length, Y340E/Y341E)
Protocol conditions: ATP 1 μM; 60 min pre-incubation; 1 hour reaction; column head does not say FL or TR
Quantity: IC50 (nM)

(a) Cc1ncc(NC(=O)c2ccnc(C(C)(C)F)c2)cc1-c1cc(C2(O)COC2)cc(C2(F)COC2)c1 [Example 142]
(b) COc1ncc(-c2cc(NC(=O)c3ccnc(C(C)(F)F)c3)cnc2C)cc1C1(C#N)COC1 [Example 116]
(c) Cc1ccc(NC(=O)c2ccnc(C(C)(C)C#N)c2)cc1-c1cc(OCCO)nc(C2CCOCC2)c1 [Example 270]
(d) CCN1CCC(Oc2nnc(-c3cc(NC(=O)c4ccnc(C(F)(F)F)c4)ccc3C)cc2C2CCOCC2)CC1 [Example 314]
# ascending order, key=IC50 A ranking is expressed here by listing the labels in the requested order. d, c, b, a

====

Target system: b-Raf (V600E) (Homo sapiens (Human), UniProt P15056, V600E)
Sequence (P15056 whole entry V600E): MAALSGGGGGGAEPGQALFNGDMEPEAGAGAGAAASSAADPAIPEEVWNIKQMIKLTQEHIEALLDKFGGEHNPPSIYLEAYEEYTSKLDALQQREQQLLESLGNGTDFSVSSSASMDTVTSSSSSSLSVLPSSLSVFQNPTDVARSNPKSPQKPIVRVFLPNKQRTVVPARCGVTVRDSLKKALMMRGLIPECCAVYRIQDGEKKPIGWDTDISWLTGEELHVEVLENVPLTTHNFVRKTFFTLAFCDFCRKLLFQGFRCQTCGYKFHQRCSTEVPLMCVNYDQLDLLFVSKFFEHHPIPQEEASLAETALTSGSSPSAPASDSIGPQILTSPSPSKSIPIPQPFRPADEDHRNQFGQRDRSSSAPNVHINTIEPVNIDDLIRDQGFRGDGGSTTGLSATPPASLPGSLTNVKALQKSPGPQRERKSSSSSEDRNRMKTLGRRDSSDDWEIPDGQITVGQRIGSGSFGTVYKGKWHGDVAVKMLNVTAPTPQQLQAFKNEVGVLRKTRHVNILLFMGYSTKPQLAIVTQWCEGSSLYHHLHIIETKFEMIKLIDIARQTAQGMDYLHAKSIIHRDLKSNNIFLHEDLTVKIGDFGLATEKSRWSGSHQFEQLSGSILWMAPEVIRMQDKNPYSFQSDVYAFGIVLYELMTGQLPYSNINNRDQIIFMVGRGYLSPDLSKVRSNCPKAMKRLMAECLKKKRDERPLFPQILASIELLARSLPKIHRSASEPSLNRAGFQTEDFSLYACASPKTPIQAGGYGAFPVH
Assay summary: In vitro Raf activity determination (Alpha Screen, phospho-MEK), b-Raf (V600E)
Protocol conditions: ATP 10 μM, 60 min pre-incubation, 3 hours reaction
Quantity: IC50 (nM)

(A) COc1ncc(-c2cc(NC(=O)c3cc(C(C)(F)F)ccn3)ccc2C)cc1C1(F)COC1
(B) COc1ncc(-c2cc(NC(=O)c3cc(C(C)(C)F)ccn3)cnc2C)cc1C1(F)COC1
(C) COc1ncc(-c2cc(NC(=O)c3ccnc(C(C)(C)F)c3)cnc2C)cc1C1(F)COC1
(D) COc1ncc(-c2cc(NC(=O)c3ccnc(C(C)(C)C#N)c3)ccc2C)cc1C1(CF)COC1
# ascending order, key=IC50 A ranking is expressed here by listing the labels in the requested order. D, A, C, B
(D: 0.58 nM, A: 1.19 nM, C: 3.73 nM, B: 8.03 nM)

====

Target system: b-Raf (V600E) (Homo sapiens (Human), UniProt P15056, V600E)
Assay summary: In vitro Raf activity determination (Alpha Screen, phospho-MEK), b-Raf (V600E)
Protocol conditions: ATP 10 μM, 60 min pre-incubation, 3 hours reaction
pIC50: −log10 of the molar value.
Quantity: pIC50

Take a look at these entries with their results.
Cc1ncc(NC(=O)c2cccc(C(F)(F)F)c2)cc1-c1cnc(OCCO)c(C2(O)COC2)c1 [Example 36]    7.92
COc1ncc(-c2cc(NC(=O)c3cc(C(F)(F)F)ccn3)cnc2C)cc1C1(O)COC1 [Example 78]    7.63

(A) COc1ncc(-c2cc(NC(=O)c3cc(C(C)(C)N)cc(C(F)(F)F)c3)cnc2C)cc1C1(C#N)COC1 [Example 114]
(B) COc1ncc(-c2cc(NC(=O)c3ccnc(C(C)(C)C#N)c3)ccc2C)cc1C1(O)COC1 [Example 72]
Pick one: A or B . Which one has the lower reported pIC50? Refer to your chosen entry by its label in the reply. A

====

Target system: C-Raf FL (Homo sapiens (Human), UniProt P04049, Y340E/Y341E)
Assay summary: In vitro Raf activity determination (Alpha Screen, phospho-MEK), C-Raf FL (full length, Y340E/Y341E)
Protocol conditions: ATP 1 μM; 60 min pre-incubation; 1 hour reaction; column head does not say FL or TR
pIC50: −log10 of the molar value.
Quantity: pIC50

Take a look at these entries with their results.
Cc1ccc(NC(=O)c2cc(C(F)(F)F)ncn2)cc1-c1cc(OCCO)nc(C2CCOCC2)c1 [Example 260]    10.10
COc1ncc(-c2cc(NC(=O)c3cc(C(C)(F)F)ccn3)ccc2C)cc1C1(O)COC1 [Example 92]    9.48
CCC(F)(F)c1cc(C(=O)Nc2cnc(C)c(-c3cc(C4CCOCC4)nc(N4CCC(O)CC4)c3)c2)ccn1 [Example 185]    9.48
Cc1ncc(NC(=O)c2cccc(C(F)(F)F)c2)cc1-c1cc(C2(C)COC2)c(=O)[nH]n1 [Example 15]    9.00
CCOc1nnc(-c2cc(NC(=O)c3cncc(C(F)(F)F)c3)ccc2C)cc1C1CCOCC1 [Example 231]    9.70

(I) Cc1ccc(C(=O)Nc2cccc(C(F)(F)F)c2)cc1-c1cccc(C2(C)COC2)c1 [Example 26]
(II) Cc1ccc(NC(=O)c2ccnc(C(C)(F)F)c2)cc1-c1cc(C2(O)COC2)cc(C2(F)COC2)c1 [Example 136]
Pick one: I or II . Which one has the lower reported pIC50? Refer to your chosen entry by its label in the reply. I
(I: 9.43, II: 9.75)
